// data source = patent US20150118233A1

biological target: hRSV FTM- NN protein (membrane anchorless form of the Long fusion protein, 70 kDa) (hRSV strain Long); experiment: SPR (Biacore T100), FTM- NN amine-coupled, 1:1 Langmuir fit
pKd: −log10 of the molar value.
Returns one of satisfied or not satisfied; satisfied when pKd is >= 9.

Check the entry Nanobody 15H8 (VHH) VHH: EVQLVESGGGLVQAGGSLRLSCAASGRSFSNYVLGWFRQAPGKEREFVAAISFRGDSAIGAPSVEGRFTISRDNAKNTGYLQMNSLVPDDTAVYYCGAGTPLNPGAYIYDWSYDYWGRGTQVTVSS : does pKd equal or exceed 9?
not satisfied

What do you have for Nanobody NC41 (VHH) VHH: EVQLVESGGGLVQAGGSLSISCAASGGSLSNYVLGWFRQAPGKEREFVAAINWRGDITIGPPNVEGRFTISRDNAKNTGYLQMNSLAPDDTAVYYCGAGTPLNPGAYIYDWSYDYWGRGTQVTVSS ?
not satisfied

Param item: Nanobody 191E4 (VHH) VHH: EVQLVESGGGLVQAGGSLRLSCAASGPTFSADTMGWFRQAPGKEREFVATIPWSGGIAYYSDSVKGRFTMSRDNAKNTVDLQMNSLKPEDTALYYCAGSSRIYIYSDSLSERSYDYWGQGTQVTVSS
satisfied
